Quick reference: Kd of the listed items.
- SYSTEM NAME: T1, PD-L1-HIS recombinant protein (human, UniProt Q9NZQ7 19-238, limits assumed)
- T1 construct: not shown: His tag
- T1 sequence (Q9NZQ7 19-238 limits assumed): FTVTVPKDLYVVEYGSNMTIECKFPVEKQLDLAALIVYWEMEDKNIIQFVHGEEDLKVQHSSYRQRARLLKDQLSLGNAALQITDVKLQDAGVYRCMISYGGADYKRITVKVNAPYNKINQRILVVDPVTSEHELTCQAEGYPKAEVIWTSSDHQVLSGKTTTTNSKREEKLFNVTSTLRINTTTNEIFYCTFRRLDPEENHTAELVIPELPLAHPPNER
- TEST: SPR (Biacore 8K), antibody captured on chip, PD-L1-HIS analyte 2.5-80 nM, 1:1 binding model
READOUT: Kd

INSERT INTO assay_data (binder, readout, result) VALUES
  ('AH01947 (antibody, human IgG1, V domains shown, also called mPD-L1Ab-CBM clone AH01947) VH: QVQLQESGPGLVKPSQTLSLTCTVSGYSITSGYTWHWIRQHPGKGLEWIGYIHYSGSTKYNPSLKSRVTISVDTSKNQFSLKLSSVTAADTAVYYCARNSLFASWGQGTLVTVSS VL: DIVLTQSPDSLAVSLGERATINCRASESVDTYGDSFMHWFQQKPGQPPKLLIYRASNLESGVPDRFSGSGSGTDFTLTISSLQAEDVAVYYCQQSNEAPYTFGGGTKLEIK', 'Kd', '3.11 nM'),
  ('AH01950 (antibody, human IgG1, V domains shown, also called mPD-L1Ab-CBM clone AH01950) VH: QVQLQESGPGLVKPSQTLSLTCTVSGYSITSGYTWHWIRQHPGKGLEWIGYIHYSGSTKYNPSLKSRVTISRDTSKNQFSLKLSSVTAADTAVYYCARNSLFASWGQGTLVTVSS VL: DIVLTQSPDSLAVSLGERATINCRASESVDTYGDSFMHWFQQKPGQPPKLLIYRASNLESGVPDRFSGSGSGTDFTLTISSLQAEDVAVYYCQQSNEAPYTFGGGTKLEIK', 'Kd', '0.82 nM'),
  ('AH02033 (antibody, human IgG1, V domains shown, also called mPD-L1Ab-5BM clone AH02033) VH: QVQLQESGPGLVKPSQTLSLTCTVTGYSITSGYTWHWIRQHPGKGLEWMGYIHYSGSTKYNPSLKSRFTISRDTSKNQFSLKLSSVTAADTAVYYCARNSLFASWGQGTLVTVSS VL: DIVLTQSPDSLAVSLGERATINCRASESVDTYGDSFMHWFQQKPGQPPKLLIYRASNLESGIPDRFSGSGSGTDFTLTISSLQAEDVAVYYCQQSNEAPYTFGGGTKLEIK', 'Kd', '0.903 nM'),
  ('AH02029 (antibody, human IgG1, V domains shown, also called mPD-L1Ab-5BM clone AH02029) VH: QVQLQESGPGLVKPSQTLSLTCTVTGYSITSGYTWHWIRQHPGKGLEWIGYIHYSGSTKYNPSLKSRVSISRDTSKNQFSLKLSSVTAADTAVYYCARNSLFASWGQGTLVTVSS VL: DIVLTQSPDSLAVSLGERATINCRASESVDTYGDSFMHWYQQKPGQPPKLLIYRASNLESGVPDRFSGSGSGTDFTLTISSLQAEDVAVYYCQQSNEAPYTFGGGTKLEIK', 'Kd', '1.57 nM');
